Test system: Mus musculus
Measurement Description: Toxicity in pentylenetetrazole induced Swiss albino mouse convulsion model assessed as time of death at 200 mg/kg, ip administered for 20 mins followed by pentylenetetrazole challenge
Format: organism-based
Assay Setup: in vivo
Measurement Name: Time (min)
Could you give me the number in min? Just the number is fine.

CC1=CN2CC/C(=C\c3ccc(Br)cc3)C(=O)N=C2S1 = 2.6
COc1ccc(/C=C2\CCN3C(C)=CSC3=NC2=O)cc1 = 5.1

The record that follows has no Time shown yet.
Bench note: what Time did CC1=CSC2=NC(=O)/C(=C/c3ccc(Br)cc3)CCN12 show? 3.6

====

Tested on: Mus musculus
Measurement Description: Anticonvulsant activity in Swiss albino mouse assessed as pentylenetetrazole induced convulsions frequency time at 200 mg/kg, ip administered for 20 mins followed by pentylenetetrazole challenge
Assay type: functional
Measurement Name: Time (min)
Return type: number; implicit unit min.

Solved entries (count: 5):
CCOC(=O)C1=C(C)N2CC/C(=C\c3ccc(Br)cc3)C(=O)N=C2S1 = 4.1
CCOC(=O)C1=C(C)N2CC/C(=C\c3ccc(OC)cc3)C(=O)N=C2S1 = 2.3
COc1ccc(/C=C2\CCN3C=C(C)SC3=NC2=O)cc1 = 5.3
CC1=CN2CC/C(=C\c3ccc(Br)cc3)C(=O)N=C2S1 = 2.1
CC1=CN2CCCC(=O)N=C2S1 = 3.1

Please examine the following record next.
Field request: Time | item: CC1=CSC2=NC(=O)/C(=C/c3ccc(Br)cc3)CCN12 2

====

System: Mus musculus
Measurement Description: Anticonvulsant activity in Swiss albino mouse assessed as pentylenetetrazole induced convulsions frequency time at 200 mg/kg, ip administered for 20 mins followed by pentylenetetrazole challenge
Assay type: functional
Time values by entry
Record the value in min, omitting the unit from your answer.

Take a look at these entries with their results.
COc1ccc(/C=C2\CCN3C(C)=CSC3=NC2=O)cc1 = 1.9
CC1=C(Sc2ccccc2C(=O)O)SC2=NC(=O)CCCN21 = 2.8

Given the entry CC1=CSC2=NC(=O)CCCN12 , report its measured Time. 3.1

====

Test system: Mus musculus
Measurement Description: Toxicity in pentylenetetrazole induced Swiss albino mouse convulsion model assessed as time of death at 200 mg/kg, ip administered for 20 mins followed by pentylenetetrazole challenge
Format: organism-based
Assay Setup: in vivo
Entries annotated with measured Time
# number then unit; no other words

Known Time results, listed for orientation:
CCOC(=O)C1=C(C)N2CC/C(=C\c3ccc(Br)cc3)C(=O)N=C2S1 = 8.4 min
CCOC(=O)C1=C(C)N2CC/C(=C\c3ccc(OC)cc3)C(=O)N=C2S1 = 3.7 min
COc1ccc(/C=C2\CCN3C=C(C)SC3=NC2=O)cc1 = 27.3 min

Lab note: need Time with Mus musculus for entry CC1=C(Sc2ccccc2C(=O)O)SC2=NC(=O)CCCN21 , please look it up. 3.8 min

Query the reported Time for Mus musculus; item: CC1=CSC2=NC(=O)CCCN12 4.1 min

Request body: readout Time, system Mus musculus, query CC1=CN2CCCC(=O)N=C2S1 . Return the value. 5.2 min

====

Tested on: Mus musculus
Measurement Description: Toxicity in picrotoxin-induced Swiss albino mouse convulsion model assessed as time of death at 200 mg/kg, ip administered for 30 mins followed by picrotoxin challenge
Assay type: organism-based
Assay Setup: in vivo, 0.5 h
Measurement Name: Time (min)
Give the value, in units of min, as a plain number.

Please review the entries below; each comes with its answer.
CC1=CN2CC/C(=C\c3ccc(Br)cc3)C(=O)N=C2S1 = 14.3
CC1=C(Br)SC2=NC(=O)CCCN21 = 23.1
CC1=C(Sc2ccccc2C(=O)O)SC2=NC(=O)CCCN21 = 12.3
COc1ccc(/C=C2\CCN3C(C)=CSC3=NC2=O)cc1 = 20.7
COc1ccc(/C=C2\CCN3C=C(C)SC3=NC2=O)cc1 = 8.1

Need Time of CC1=CN2CCCC(=O)N=C2S1 , thanks. 10.1

Any idea what its Time is? The molecule is CCOC(=O)C1=C(C)N2CC/C(=C\c3ccc(OC)cc3)C(=O)N=C2S1 18.3

Please give the measured Time for this molecule: CCOC(=O)C1=C(C)N2CC/C(=C\c3ccc(Br)cc3)C(=O)N=C2S1 11.6

Any idea what Time was measured for CC1=CSC2=NC(=O)/C(=C/c3ccc(Br)cc3)CCN12 ? 19.5

Returns the measured Time for the input molecule. Input: CC1=CSC2=NC(=O)CCCN12 18.5

====

// reported Time for each item listed
System: Mus musculus
Measurement Description: Anticonvulsant activity in Swiss albino mouse assessed as pentylenetetrazole induced onset of convulsion time at 200 mg/kg, ip administered for 20 mins followed by pentylenetetrazole challenge
Type: functional
Form entry: value (min) — number only.

Worked examples, 8 molecules total:
CC1=CN2CC/C(=C\c3ccc(Br)cc3)C(=O)N=C2S1 = 1.2
COc1ccc(/C=C2\CCN3C=C(C)SC3=NC2=O)cc1 = 4.1
CCOC(=O)C1=C(C)N2CC/C(=C\c3ccc(OC)cc3)C(=O)N=C2S1 = 2.2
CC1=C(Sc2ccccc2C(=O)O)SC2=NC(=O)CCCN21 = 1.5
CC1=CSC2=NC(=O)CCCN12 = 1.5
CC1=CN2CCCC(=O)N=C2S1 = 4.1
COc1ccc(/C=C2\CCN3C(C)=CSC3=NC2=O)cc1 = 2.3
CCOC(=O)C1=C(C)N2CC/C(=C\c3ccc(Br)cc3)C(=O)N=C2S1 = 7.3

Please examine the following record next.
# get_value(readout='Time', item= CC1=CSC2=NC(=O)/C(=C/c3ccc(Br)cc3)CCN12 ) 2.1

====

Measurement Description: Therapeutic index, ratio of LD50 for ip dosed Swiss albino mouse to ED50 for protection against pentylenetetrazole induced seizure in ip dosed Swiss albino mouse
Type: organism-based
Assay Setup: in vivo, read-out: Ratio LD50/ED50
Measurement Name: selectivity ratio
// return just the number, without any unit appended

What does the record list as selectivity ratio for CC1=C(Br)SC2=NC(=O)CCCN21 ? 5.71

Requested field: selectivity ratio. Item: CCOC(=O)C1=C(C)N2CCCC(=O)N=C2S1 5.28

====

System: Mus musculus
Measurement Description: Anticonvulsant activity in Swiss albino mouse assessed as picrotoxin-induced convulsions frequency time at 200 mg/kg, ip administered for 30 mins followed by picrotoxin challenge
Assay type: functional
Measurement Name: Time (min)
Return type: number; implicit unit min.

Example cases with answers are listed next.
CC1=C(Br)SC2=NC(=O)CCCN21 = 5
CC1=CSC2=NC(=O)/C(=C/c3ccc(Br)cc3)CCN12 = 2.5
COc1ccc(/C=C2\CCN3C(C)=CSC3=NC2=O)cc1 = 9.5

Request - read-out Time | tested on Mus musculus | compound CCOC(=O)C1=C(C)N2CC/C(=C\c3ccc(Br)cc3)C(=O)N=C2S1 6.1

Any idea what Time came out for CCOC(=O)C1=C(C)N2CC/C(=C\c3ccc(OC)cc3)C(=O)N=C2S1 on Mus musculus? 11.1

Fill in the recorded Time for this compound, with Mus musculus as test system: CC1=CN2CC/C(=C\c3ccc(Br)cc3)C(=O)N=C2S1 6

Give the reported Time for COc1ccc(/C=C2\CCN3C=C(C)SC3=NC2=O)cc1 (system: Mus musculus). 3

====

System: Mus musculus
Measurement Description: Anticonvulsant activity in Swiss albino mouse assessed as picrotoxin-induced convulsions frequency time at 200 mg/kg, ip administered for 30 mins followed by picrotoxin challenge
Format: functional
Listed here: items and their measured Time.
Your answer should be a plain number; it is taken to be in min.

Solved entries:
CC1=CSC2=NC(=O)CCCN12 = 6.7
CC1=CN2CCCC(=O)N=C2S1 = 8.7

Then this compound:
May I ask what Time has been recorded for CC1=C(Sc2ccccc2C(=O)O)SC2=NC(=O)CCCN21 ? 7.3
